# Tested on: thiol peptide
# method_description: Cys-DPRA (Direct Peptide Reactivity Assay), literature data
# measurement_parameters: false positive
# key: entry, value: Cys-DPRA binary classification: FP
measurement_kind: Cys-DPRA binary classification: FP

INSERT INTO assay_data (compound, quantitative_readout) VALUES
  ('CC1=C(C=O)C(C)(C)CC=C1', 0),
  ('C=C(C)C1CC=C(C=O)CC1 (stereo not shown)', 0),
  ('CC(C)=CCCC(C)=CCCC(C)=CC=O', 0),
  ('O=Cc1ccccc1', 1),
  ('CC(C)=CCCC(C)=CC=O', 0),
  ('O=C1C=CC(=O)C=C1', 0),
  ('CCCCBr', 1);

====

Listed next: entries and their corresponding DCYA binary classification: TP.
# method_description: Microplate spectrophotometric method (DCYA assay), fluorescence end-point
# measurement_parameters: true positive; positive if 100-RI <95
Where a name gives a salt, the structure may show the parent alone.
measurement_kind: DCYA binary classification: TP

INSERT INTO results (compound, quantitative_readout) VALUES
  ('O=[N+]([O-])c1ccc(Cl)c([N+](=O)[O-])c1', 0),
  ('O=C(OCc1ccccc1)c1ccccc1 [Benzyl benzoate]', 0),
  ('CC(=O)C(=O)CC(C)C', 1),
  ('CCOC(=O)/C=C\C(=O)OCC [Diethyl maleate]', 1);

====

# method_description: Microplate spectrophotometric method (DCYA assay), fluorescence end-point
# measurement_parameters: RI = reactivity index; 2 equiv. electrophile, pH 10 buffer
Counter-ions that a name gives are not always drawn.
measurement_kind: DCYA 100-RI

INSERT INTO measurements (compound, quantitative_readout) VALUES
  ('Clc1ccccc1', 97.8),
  ('CCCCC[C@@H]1CC=CC(=O)O1', 12.8),
  ('O=C1OC(=O)C2CCCCC12 (centres unmarked) [1,2-Cyclohexanedicarboxylic anhydride]', 104.6),
  ('O=Cc1ccccc1', 98.1),
  ('CCC/C=C/C=O [trans-2-Hexenal]', 29.9),
  ('C=C(C)C1CC=C(C=O)CC1 (centres unmarked)', 95.8),
  ('Oc1ccc(O)cc1 [p-Hydroquinone]', 127.1),
  ('COc1cc(C=O)ccc1O', 106.4),
  ('CC=CC(=O)CC', 2.8),
  ('CC(=O)C(=O)CC(C)C', 90.3),
  ('O=c1ccc2ccccc2o1', 97.2),
  ('OCC=Cc1ccccc1', 105.0),
  ('CC(C)=CCCC(C)=CC=O', 88.8),
  ('CC(O)C(=O)O (centres unmarked)', 100.1),
  ('O=C(O)C(O)C(O)C(=O)O (centres unmarked)', 100.7),
  ('CCOC(=O)/C=C\C(=O)OCC [Diethyl maleate]', '−8.84'),
  ('CC/C=C/C=O [t-2-Pentenal, trans-2-Pentenal]', 18.2);

====

# method_description: Microplate spectrophotometric method (DCYA assay), fluorescence end-point
# measurement_parameters: true negative
Counter-ions that a name gives are not always drawn.
measurement_kind: DCYA binary classification: TN

INSERT INTO measurements (compound, quantitative_readout) VALUES
  ('O=C(OCc1ccccc1)c1ccccc1 [Benzyl benzoate]', 1),
  ('C=C(C)[C@@H]1CC=C(C)C(=O)C1', 0),
  ('CCOC(=O)/C=C\C(=O)OCC [Diethyl maleate]', 0);
